Target: GlcNAc(a1-4)Gal(b1-4)GlcNAc(b1-3)Gal(b1-4)GlcNAc(b1-3)Gal(b1-4)GlcNAc
Test: glycan array binding signal (z-score within array); higher = stronger binding
Settings: glycan notation: IUPAC condensed, linker removed
The entries come from a sample that favours the strongest signals as a whole.
value-kind: glycan array binding signal (z-score)
One number for each entry.

Record excerpt, results attached:
binder="Pwp2 (Candida glabrata) (protein) MGSSHHHHHHSSGLVPRGSHMASKNPVELNNVCTFPNDYGRIPGFTVLVGRLGLLISASDYKELLRYPGAFLIATQDTMTTSPNFELTGFPFFTGLYGLTVFPLDLLVELRGYFVPPNSGQYTFTLSDSDDAAIIFLGNPSAFPCGDLQNWPKPSEEDITVTDHLFPSRTLYLIEGVAYPMRIAYYNGIGAGRLNAAFIDPSGTRHTNWEGYIWQYDPCSTCTYS" test_value=-0.42
binder="Gz-CVNH (Gibberella zeae) (protein) MGSSHHHHHHSSGLVPRGSHMGNFHESSNNIWLEDGHILHAECGNGEGDYVESTLDLDYYIGNDDGSFSWGGENFSGSASNITLDIEGDDNIPVLRAELNPMDGDPVEANVNLSERIGNDCGTLIFLA" test_value=-0.131

Turning to the following binder.
Q: State its glycan array binding signal (z-score) for this binder: CIH1 (Colletotrichum higginsianum) (protein) LPQATPTTPTPTSASAAATISATSSPTCSPGPVIDYTVVSGDTLTIISQRFSSGICNIADASGITNPNFLSLGQVLQVPTYVCTPDNTSCLAKEGSDTCVEGGPATHTIVAGDTFFLVAQSLGLDVNALLAANEGVDPLLLQIGDVINIPVC
A: -0.08
